- System: HCC-2998 colon
- Assay: NCI-60 one-dose screen, 48 h (100 = growth as untreated, 0 = no growth, -100 = all killed)
- Condition set: 10 µM unless noted
- Procedure: Growth inhibition of the HCC-2998 human tumor cell line is measured as a screen for anti-cancer activity. Cells are grown in 96 well plates and exposed to the test compound for 48 hours. Compounds are tested at a single concentration, which is 10^-5 M for most compounds. The reported endpoint is percent growth (GI% or GIPRCNT), where numbers from 0 - 100% represent growth inhibition, and numbers from -100% - 0 represent cell death. For example, a value of 40 represents 60% growth inhibition. […]
This is part of a sample that, as a whole, favours compounds with a hit. Of some 83,000 tested, about 20% had one in any assay.
Reported growth by item:
Return type: number; implicit unit %.

Study these solved cases before continuing.
- Compound: "Cc1ccc(S(=O)(=O)Nc2ccc(-c3ccc4c(c3)NC(=O)/C4=C\\c3ccc[nH]3)cc2)cc1"
  Units symbol: "%"
  growth: 106
- Compound: "C[C@@H](Nc1c(C#N)cnc2ccc(-c3cnc4[nH]ncc4c3)cc12)c1ccccc1"
  Units symbol: "%"
  growth: 33.3
- Compound: "CCCN(CCC)S(=O)(=O)c1ccc(C(=O)O)cc1.CCCN(CCC)S(=O)(=O)c1ccc(C(=O)O)cc1.[Cl][Pt+2][Cl].[NH2-].[NH2-]"
  Units symbol: "%"
  growth: -27.6
- Compound: "O=C(CSc1nc2c(c(=O)[nH]1)CCCC2)Nc1ccccc1C(=O)O"
  Units symbol: "%"
  growth: 123

Exam item: // fetch growth given entry `COc1ccc(Nc2nnc(-c3c[nH]c4ccccc34)o2)cc1`
Marked response: 108

Exam item: // fetch growth given entry `CC(=O)c1c2c(c3ccc4c5ccccc5ccc4n13)C(=O)c1ccccc1C2=O`
Marked response: 94.3

Exam item: // fetch growth given entry `COc1ccc(-c2nc3ccc(-c4nnc(SCc5ccccc5)o4)cc3[nH]2)cc1`
Marked response: 25.4

Source listed as PubChem BioAssay (NCI).
